B1: H2-Kb / F4 (parent complex)
chain 1: QQQVRQSPQSLTVWEGETAILNCSYEDSTFNYFPWYQQFPGEGPALLISIRSVSDKKEDGRFTIFFNKREKKLSLHITDSQPGDSATYFCAAMSNYNVLYFGSGTKLTVEP
chain 2: ETAVFQTPNYHVTQVGNEVSFNCKQTLGHDTMYWYKQDSKKLLKIMFSYNNKQLIVNETVPRRFSPQSSDKAHLNLRIKSVEPEDSAVYLCASSARQNSPLYFAAGTRLTVT
chain 3: not shown
chain 4: IQKTPQIQVYSRHPPENGKPNILNCYVTQFHPPHIEIQMLKNGKKIPKVEMSDMSFSKDWSFYILAHTEFTPTETDTYACRVKHDSMAEPKTVYWDRDM
chain 5: SIINFEKL

Variants of: B1
experimentNotes: % of reporter cells activated (NFAT-GFP), raw; also: test concentration or dose not given here
One threshold, 0.6, splits the recorded ratio to parent values: lower ones are YES, equal or higher ones are NO.

mutationName | assignedLabel
chain 5 I3H | YES
chain 5 I2N | YES
chain 5 I2V | NO
chain 5 N4L | YES
chain 5 I2R | YES
chain 5 L8M | NO
chain 5 I3L | NO
chain 5 F5R | YES
chain 5 K7V | NO
chain 5 K7I | NO
chain 5 I3D | YES
chain 5 E6R | YES
chain 5 F5S | NO
chain 5 L8Q | NO
chain 5 I2F | NO
chain 5 F5G | YES
chain 5 F5K | YES
chain 5 S1L | YES
chain 5 K7T | NO
chain 5 F5M | NO
chain 5 L8H | NO
